These entries and their values trace back to patent US20250296992A1.

biological target: T1, human SLITRK6 extracellular domain linked to his tag (human, UniProt Q9H5Y7 27-608); experiment: BLI; antigen-his on anti-his tips, antibody or ADC as analyte; 1:1 fit
T1 construct: extracellular domain; also called huSLITRK6; Hu SLITRK6; not shown: his tag
pKd: −log10 of the molar value.
Examples of binders with documented pKd follow.
Measurement Name: pKd

{"columns": ["Binder", "Observed Measurement"],
 "data": [
  ["Sirtratumab (antibody, V domains shown, Prior-art benchmark antibody; also called Sirtratuzumab) VH: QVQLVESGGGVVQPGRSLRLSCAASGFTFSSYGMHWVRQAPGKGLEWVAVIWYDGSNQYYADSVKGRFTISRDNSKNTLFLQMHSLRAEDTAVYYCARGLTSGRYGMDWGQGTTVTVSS VL: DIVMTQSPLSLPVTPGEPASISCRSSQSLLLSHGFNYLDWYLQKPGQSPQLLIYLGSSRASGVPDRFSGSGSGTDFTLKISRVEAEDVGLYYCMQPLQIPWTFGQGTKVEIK", 9.46],
  ["AGS15E (antibody, V domains shown, drug conjugate; drug-linker and positions not given, also called ADC of Sirtratumab) VH: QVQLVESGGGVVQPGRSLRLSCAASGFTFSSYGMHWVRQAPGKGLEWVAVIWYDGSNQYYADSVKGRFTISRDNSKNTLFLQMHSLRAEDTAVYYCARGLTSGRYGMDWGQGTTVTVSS VL: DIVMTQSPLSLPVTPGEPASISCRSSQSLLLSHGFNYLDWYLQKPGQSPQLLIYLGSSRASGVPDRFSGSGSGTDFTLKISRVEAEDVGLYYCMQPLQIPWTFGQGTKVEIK", 9.52],
  ["hu1H2-03-LD038 (antibody, V domains shown, drug-linker LD038 conjugated to the antibody; positions not given, also called hu1H2-03-LALA-LD038; hu1H2-03-LD038 (8)) VH: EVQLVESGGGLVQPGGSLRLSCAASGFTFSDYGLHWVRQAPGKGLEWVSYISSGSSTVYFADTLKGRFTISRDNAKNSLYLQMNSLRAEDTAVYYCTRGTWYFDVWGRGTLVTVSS VL: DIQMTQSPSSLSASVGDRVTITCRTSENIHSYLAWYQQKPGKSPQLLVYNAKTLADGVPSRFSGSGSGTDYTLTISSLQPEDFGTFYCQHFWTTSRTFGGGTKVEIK", 10.10]
]}
